src = the supplement of paper PMC10567573

B1: HSP90AB1 (parent)
chain: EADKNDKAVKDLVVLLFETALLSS

variants of: B1; experiment: protein stability index of a GFP-peptide fusion (GPS, HEK-293T) (PSI 1-6); higher = more stable; details: c terminus: a fixed tail appended;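 also: lentivirally expressed fusions sorted by FACS into six bins by GFP to DsRed ratio, PSI derived from sequencing read proportions per bin multiplied by bin number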
Short version: protein stability index at least 2 is YES, less is NO.

Reference set, count: 3
A20G ... YES
S23C ... YES
N5V ... NO

From here, focus on the item given below.
Assess whether reported protein stability index for "E1H" sits at 2 or higher.
NO
